assayed.target: Rabies virus glycoprotein G, Challenge Virus Standard (CVS)-11 strain (Rabies virus, strain CVS-11 (genotype 1 Lyssavirus)) (UniProt O92284)
Sequence (O92284 20-524 limits assumed): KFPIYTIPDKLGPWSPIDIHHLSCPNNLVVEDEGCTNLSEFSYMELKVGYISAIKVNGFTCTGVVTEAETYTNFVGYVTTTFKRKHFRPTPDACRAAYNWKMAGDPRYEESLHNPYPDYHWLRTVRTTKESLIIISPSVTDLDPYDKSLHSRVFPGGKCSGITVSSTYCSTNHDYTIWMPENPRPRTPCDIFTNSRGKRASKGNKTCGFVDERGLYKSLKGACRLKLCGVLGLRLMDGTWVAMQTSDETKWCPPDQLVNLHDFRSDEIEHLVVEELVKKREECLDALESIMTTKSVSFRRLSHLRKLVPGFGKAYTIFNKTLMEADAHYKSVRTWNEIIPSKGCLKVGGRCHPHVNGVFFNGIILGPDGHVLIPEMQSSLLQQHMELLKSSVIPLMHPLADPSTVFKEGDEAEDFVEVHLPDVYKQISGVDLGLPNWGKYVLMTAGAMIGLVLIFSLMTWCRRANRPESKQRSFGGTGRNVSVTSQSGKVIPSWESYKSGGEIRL
assay.text: cell-based or functional assay
parameter.measured: CVS-11 neutralizing antibody titer (RFFIT), nM IC50

binder="LG191E4 (VHH) VHH: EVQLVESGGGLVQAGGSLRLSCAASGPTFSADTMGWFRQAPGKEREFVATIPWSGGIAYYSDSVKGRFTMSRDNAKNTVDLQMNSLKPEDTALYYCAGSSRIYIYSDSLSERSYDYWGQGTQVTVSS" value_reported="> 5960 nM"
binder="LG213D6 (VHH) VHH: EVQLVESGGGLVQPGGSLRLSCAASGFTFGDSDMSWVRQAPGEGPEWVAGINSGGGSTVYADSVKGRFTISRDNAKNMLYLQMNSLKPEDTAVYLCAQGLMAEVTAGYWGQGTQVTVSS" value_reported="> 7820 nM"
binder="LG192C4 (VHH) VHH: EVQLVESGGGLVQAGGSLRLSCEASGRTFSSYAMVGWFRQAPGKEREFVAAVTRWSGARTVYADSVKGRFTISRDNAENTVYLQMNSLKPEDTAVYTCAADSTNRNSGAVYYSWAYDYWGQGTQVTVSS" value_reported="> 5880 nM"
